Each item that follows carries a reported EC50.
System: human Pan T cells
Experiment: Human Pan T cell IL-2 ELISA
Type: cell-based
Details: Homo sapiens, T-cell, 48 h, Anti-CD3 and Anti-CD28, supernatant IL-2 ELISA, read-out: IL-2 release, EC50
reportedMetric: EC50 (nM)

{"compound": "CC1(C)c2cc(N3CCOCC3)ccc2Nc2c1cc(-c1cnc3cc(N4CC(F)C4)ccn13)c1c2C(=O)NC1", "reportedMetric": "EC50", "resultValue": 23}
{"compound": "COc1ccn2c(-c3cc4c(c5c3CNC5=O)Nc3ccc(N5CCOC(C(C)(C)O)C5)cc3C4(C)C)cnc2c1 (stereo not shown)", "reportedMetric": "EC50", "resultValue": 15.9}
{"compound": "CC1(C)c2cc(C3CCNCC3)ccc2Nc2c1cc(-c1cnn3cccnc13)c1c2C(=O)NC1", "reportedMetric": "EC50", "resultValue": 17.4}
{"compound": "Cc1cnc2c(-c3cc4c(c5c3CNC5=O)Nc3ccc(N5CCOCC5)cc3C4(C)C)cnn2c1", "reportedMetric": "EC50", "resultValue": 17.7}
{"compound": "CC1(C)c2cc(N3CCOCC3)ccc2Nc2c1cc(-c1cnc3n1CCC3)c1c2C(=O)NC1", "reportedMetric": "EC50", "resultValue": 11.5}
{"compound": "CC1(C)c2cc(N3CCOCC3)ccc2Nc2c1cc(-c1cnn3cccnc13)c1cc[nH]c(=O)c21", "reportedMetric": "EC50", "resultValue": 4.61}
{"compound": "COc1nccn2c(-c3cc4c(c5c3CNC5=O)Nc3ccc(N5CCOC6(CC6)C5)cc3C4(C)C)cnc12", "reportedMetric": "EC50", "resultValue": 2.7}

* * *

Test system: human Pan T cells
Experiment: Human Pan T cell IL-2 ELISA
Format: cell-based
Conditions: Homo sapiens, T-cell, 48 h, Anti-CD3 and Anti-CD28, supernatant IL-2 ELISA, read-out: IL-2 release, EC50
For each record, check the reported EC50: if it is below 7 nM write Met, else write Not met.

{"molecule": "CC1(C)c2cc(CN3CCOCC3)ccc2Nc2c1cc(-c1cnn3cccnc13)c1c2C(=O)NC1", "classLabel": "Not met"}
{"molecule": "CC1(C)c2cc(N3CCOCC3)ccc2Nc2c1cc(-c1cnc3c(OC4CNC4)nccn13)c1c2C(=O)NC1", "classLabel": "Not met"}
{"molecule": "CC1(C)c2cc(N3CCOCC3)ccc2Nc2c1cc(-c1cnn3c1OCCC3)c1c2C(=O)NC1", "classLabel": "Not met"}
{"molecule": "COC1CCCn2c(-c3cc4c(c5c3CNC5=O)Nc3ccc(C5CCOCC5)cc3C4(C)C)cnc21 (single isomer, unassigned)", "classLabel": "Not met"}
{"molecule": "COC1CCCn2c(-c3cc4c(c5c3CNC5=O)Nc3ccc(N5CCCOCC5)cc3C4(C)C)cnc21 (single isomer, unassigned)", "classLabel": "Not met"}
{"molecule": "Cn1c(-c2cc3c(c4c2CNC4=O)Nc2ccc(N4CCO[C@@H](C(C)(C)O)C4)cc2C3(C)C)cnc1N1CCOCC1", "classLabel": "Not met"}
{"molecule": "CC1(C)c2cc(N3CCOC(C(C)(C)O)C3)ccc2Nc2c1cc(-c1cnc3cc(C(F)F)ccn13)c1c2C(=O)NC1 (single isomer, unassigned) [Example 129]", "classLabel": "Not met"}
{"molecule": "COC1CCCc2c(-c3cc4c(c5c3CNC5=O)Nc3ccc(N5CCOCC5)cc3C4(C)C)cnn21 (single isomer, unassigned)", "classLabel": "Not met"}
{"molecule": "COCC1CN(c2ccc3c(c2)C(C)(C)c2cc(-c4cnc5c(OC)nccn45)c4c(c2N3)C(=O)NC4)CCO1 (stereo not shown)", "classLabel": "Met"}
{"molecule": "COc1c(F)ccn2c(-c3cc4c(c5c3CNC5=O)Nc3ccc(N5CCOCC5)cc3C4(C)C)cnc12", "classLabel": "Met"}
{"molecule": "COc1cccn2c(-c3cc4c(c5c3CNC5=O)Nc3ccc(N5CCOCC5)cc3C4(C)C)nnc12", "classLabel": "Met"}
{"molecule": "Cc1ccn2c(-c3cc4c(c5c3CNC5=O)Nc3ccc(N5CCOC(C(C)(C)O)C5)cc3C4(C)C)cnc2c1F (stereo not shown) [Example 9]", "classLabel": "Met"}
{"molecule": "CC1(C)c2cc(N3CCOCC3)ccc2Nc2c1cc(-c1cnc3n1CCOC3)c1c2C(=O)NC1", "classLabel": "Not met"}
{"molecule": "CNC1CCN(c2ccc3c(c2)C(C)(C)c2cc(-c4cnn5cccnc45)c4c(c2N3)C(=O)NC4)CC1", "classLabel": "Met"}
{"molecule": "Cn1cccc(Nc2cc3c(c4c2CNC4=O)Nc2ccc(N4CCOCC4)cc2C3(C)C)c1=O", "classLabel": "Not met"}
{"molecule": "CC1(C)c2cc(N3CCOCC3)ccc2Nc2c1cc(-c1cnc3cc(C(F)F)ccn13)c1c2C(=O)NC1", "classLabel": "Met"}
{"molecule": "CC1(C)c2cc(N3CCOCC3)ccc2Nc2c1cc(-c1cnc3c(OC4CC4)nccn13)c1c2C(=O)NC1", "classLabel": "Not met"}
{"molecule": "Cc1ccc2c(-c3cc4c(c5c3CNC5=O)Nc3ccc(N5CCOC(C(C)(C)O)C5)cc3C4(C)C)cnn2c1 (single isomer, unassigned)", "classLabel": "Not met"}
{"molecule": "Cc1ccn2c(-c3cc4c(c5c3CNC5=O)Nc3ccc(N5CCOCC5)cc3C4(C)C)cnc2c1F", "classLabel": "Not met"}
{"molecule": "COc1ccn2c(-c3cc4c(c5c3CNC5=O)Nc3ccc(N5CCOCC5)cc3C4(C)C)cnc2c1F", "classLabel": "Not met"}
{"molecule": "COc1ccnc2c(-c3cc4c(c5c3CNC5=O)Nc3ccc(N5CCO[C@@H](C(C)(C)O)C5)cc3C4(C)C)cnn12", "classLabel": "Met"}
{"molecule": "COc1cccn2c(-c3cc4c(c5c3CNC5=O)Nc3cnc(N5CCOCC5)cc3C4(C)C)cnc12", "classLabel": "Not met"}
{"molecule": "CC1(C)c2cc(N3CCOCC3)ccc2Nc2c1cc(-c1cnc3cnccn13)c1c2C(=O)NC1", "classLabel": "Met"}
{"molecule": "CC1(C)c2cc(CN3CCN(CC4CC4)CC3)ccc2Nc2c1cc(-c1cnn3cccnc13)c1c2C(=O)NC1", "classLabel": "Not met"}
{"molecule": "CC1(C)c2cc(N3CCOC(C(C)(C)O)C3)ccc2Nc2c1cc(-c1cnn3cc(C#N)ccc13)c1c2C(=O)NC1 (single isomer, unassigned)", "classLabel": "Met"}
{"molecule": "CC1(C)c2cc(N3CCOCC3)ccc2Nc2c1cc(-c1cnc3nc(C(F)F)ccn13)c1c2C(=O)NC1", "classLabel": "Not met"}
{"molecule": "CC1(C)c2cc(N3CCOC(C(C)(C)O)C3)ccc2Nc2c1cc(-c1ccncc1)c1c2C(=O)NC1 (stereo not shown)", "classLabel": "Not met"}

* * *

Each item that follows carries a reported pIC50.
Target: HPK1 (Homo sapiens)
Experiment: HPK1 ADP-Glo kinase assay
Type: biochemical
Details: 40 µM ATP; 5 nM HPK1; MBP protein substrate
pIC50: −log10 of the molar value.

{"molecule": "Cc1ccn2c(-c3cc4c(c5c(=O)[nH]ccc35)Nc3ccc(N5CCOCC5)cc3C4(C)C)cnc2c1F [Example 5]", "pIC50": 8.46}
{"molecule": "COc1cccn2c(-c3cc4c(c5c(=O)[nH]ccc35)Nc3ccc(N5CCOC(C(C)(C)O)C5)cc3C4(C)C)cnc12 (stereo not shown) [Example 2]", "pIC50": 8.77}
{"molecule": "COc1cccn2c(-c3cc4c(c5c(=O)[nH]ccc35)Nc3ccc(N5CCOCC5)cc3C4(C)C)cnc12 [Example 3]", "pIC50": 9.52}
{"molecule": "CC1(C)c2cc(N3CCOCC3)ccc2Nc2c1cc(-c1cnc3c(Cl)cccn13)c1cc[nH]c(=O)c21 [Example 1]", "pIC50": 10.00}

* * *

Target: HPK1 (Homo sapiens, UniProt Q92918)
Sequence (Q92918 whole entry, species assumed): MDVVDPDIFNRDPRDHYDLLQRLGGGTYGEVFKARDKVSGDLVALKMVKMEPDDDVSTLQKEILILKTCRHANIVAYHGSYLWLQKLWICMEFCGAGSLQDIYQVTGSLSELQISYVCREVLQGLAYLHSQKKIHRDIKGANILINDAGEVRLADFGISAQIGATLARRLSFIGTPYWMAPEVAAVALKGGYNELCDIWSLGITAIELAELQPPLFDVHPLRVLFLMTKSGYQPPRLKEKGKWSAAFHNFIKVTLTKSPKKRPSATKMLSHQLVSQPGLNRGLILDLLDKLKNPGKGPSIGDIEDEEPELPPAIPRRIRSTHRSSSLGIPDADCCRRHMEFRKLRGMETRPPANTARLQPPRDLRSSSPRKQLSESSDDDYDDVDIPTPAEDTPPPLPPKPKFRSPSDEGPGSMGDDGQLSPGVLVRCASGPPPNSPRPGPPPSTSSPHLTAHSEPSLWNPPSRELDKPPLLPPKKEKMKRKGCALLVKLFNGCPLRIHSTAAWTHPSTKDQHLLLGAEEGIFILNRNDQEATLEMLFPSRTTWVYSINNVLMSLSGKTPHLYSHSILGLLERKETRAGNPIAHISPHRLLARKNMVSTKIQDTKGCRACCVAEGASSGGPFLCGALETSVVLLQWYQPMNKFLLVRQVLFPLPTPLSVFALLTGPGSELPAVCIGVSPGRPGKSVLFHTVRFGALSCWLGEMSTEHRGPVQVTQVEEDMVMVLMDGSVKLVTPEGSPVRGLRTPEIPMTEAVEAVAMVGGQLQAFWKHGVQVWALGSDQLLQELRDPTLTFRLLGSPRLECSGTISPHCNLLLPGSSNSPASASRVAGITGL
Experiment: HPK1 HTRF kinase assay
Type: biochemical
Settings: 1000 µM ATP; 50 nM HPK1; STK1 substrate; read-out: HPK1, IC50
For each record, check the reported IC50: if it is below 8 nM write true, else write false.

{"molecule": "COc1nccn2c(-c3cc4c(c5c3CNC5=O)Nc3ccc(N5CCOCC5)cc3C4(C)C)cnc12 [Example 63]", "classLabel": "true"}
{"molecule": "Cn1ccc2c(-c3cc4c(c5c3CNC5=O)Nc3ccc(N5CCOCC5)cc3C4(C)C)cncc21 [Example 38]", "classLabel": "false"}
{"molecule": "CNc1cncc(-c2cc3c(c4c2CNC4=O)Nc2ccc(N4CCOCC4)cc2C3(C)C)c1 [Example 82]", "classLabel": "true"}
{"molecule": "COc1cccc2c(-c3cc4c(c5c3CNC5=O)Nc3ccc(N5CCOCC5)cc3C4(C)C)cnn12 [Example 18]", "classLabel": "false"}
{"molecule": "CC1(C)c2cc(NC(=O)COCCO)ccc2Nc2c1cc(-c1cnn3cccnc13)c1c2C(=O)NC1 [Example 92]", "classLabel": "true"}
{"molecule": "Cc1ccn2c(-c3cc4c(c5c3CNC5=O)Nc3ccc(N5CCOC(C(C)(C)O)C5)cc3C4(C)C)cnc2c1F (stereo not shown) [Example 9]", "classLabel": "false"}
{"molecule": "COc1cccn2c(-c3cc4c(c5c3CNC5=O)Nc3cnc(N5CCOCC5)cc3C4(C)C)cnc12 [Example 14]", "classLabel": "false"}
{"molecule": "CN1CCN(c2ccc3c(c2)C(C)(C)c2cc(-c4cnn5cccnc45)c4c(c2N3)C(=O)NC4)C(=O)C1 [Example 55]", "classLabel": "true"}
{"molecule": "CC1(C)c2cc(N3CCOCC3)ccc2Nc2c1cc(-c1cnc3n1CCOC3)c1c2C(=O)NC1 [Example 79]", "classLabel": "true"}
{"molecule": "CC1(C)c2cc(N3CCOC(C(C)(C)O)C3)ccc2Nc2c1cc(-c1cnc3c(C#N)cccn13)c1c2C(=O)NC1 (stereo not shown) [Example 23]", "classLabel": "true"}
{"molecule": "CC1(C)c2cc(CN3CCOCC3)ccc2Nc2c1cc(-c1cnn3cccnc13)c1c2C(=O)NC1 [Example 51]", "classLabel": "false"}
{"molecule": "CC1(C)c2cc(N3CCOCC3)ccc2Nc2c1cc(-c1cnn3c1CNCC3)c1c2C(=O)NC1 [Example 70]", "classLabel": "false"}
{"molecule": "Cc1cnc2c(-c3cc4c(c5c3CNC5=O)Nc3ccc(N5CCOCC5)cc3C4(C)C)cnn2c1 [Example 61]", "classLabel": "false"}
{"molecule": "CC1(C)c2cc(N3CCOCC3)cnc2Nc2c1cc(-c1cnn3cccnc13)c1c2C(=O)NC1 [Example 28]", "classLabel": "false"}
